- Tested on: C32
- experimental-protocol: relative viability (cell count relative to DMSO-treated control) (fraction of DMSO control); higher = more viable cells / less drug effect
- experimental-parameters: 48 h; 3.16 µM
assay-readout: relative viability
Please reply with the value in numeric form only.

1. CN(C)CCOc1ccc(-c2nc(-c3ccncc3)c(-c3ccc4c(c3)CC/C4=N\O)[nH]2)cc1
0.4
2. CCCS(=O)(=O)Nc1ccc(F)c(C(=O)c2c[nH]c3ncc(Cl)cc23)c1F [PLX4720]
0.155
3. Cc1ccc(NC(=O)c2cccc(C(C)(C)C#N)c2)cc1Nc1ccc2ncn(C)c(=O)c2c1 [AZ628]
0.0749
4. Cn1cnc2c(F)c(Nc3ccc(Br)cc3Cl)c(C(=O)NOCCO)cc21 [Selumetinib]
0.127

Moving on to the next compound.
### Prompt Given the entry CCCS(=O)(=O)Nc1ccc(F)c(C(=O)c2c[nH]c3ncc(-c4ccc(Cl)cc4)cc23)c1F [Vemurafenib] , report its measured relative viability.
### Response 0.102
